target: human opioid receptor-like receptor (ORL-1) (Homo sapiens); construct: host or cells: HEK-293; assay: biochemical; format: binding; details: read-out: Nociceptin Affinity calc Ki
Sequence (P41146 whole entry): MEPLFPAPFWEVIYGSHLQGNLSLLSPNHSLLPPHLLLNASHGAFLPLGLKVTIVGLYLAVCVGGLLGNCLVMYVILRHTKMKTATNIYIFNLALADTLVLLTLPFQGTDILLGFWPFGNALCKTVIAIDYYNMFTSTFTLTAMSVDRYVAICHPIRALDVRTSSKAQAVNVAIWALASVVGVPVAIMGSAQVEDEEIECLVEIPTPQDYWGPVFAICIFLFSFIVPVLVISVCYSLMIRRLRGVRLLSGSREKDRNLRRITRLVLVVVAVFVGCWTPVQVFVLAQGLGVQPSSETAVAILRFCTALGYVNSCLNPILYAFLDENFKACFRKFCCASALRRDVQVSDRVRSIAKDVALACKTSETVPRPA
Measured endpoint: Ki (nM)
The answer is to be given in nM; state only the numeric part.

Item: O=C1NN=C(c2ccccc2)C12CCN(C1CC3CCC1C3)CC2 (stereo not shown) | Ki: 897

---

molecular target: human opioid receptor-like receptor (ORL-1) (Homo sapiens); construct: host or cells: HEK-293; assay: biochemical; format: binding; conditions: Nociceptin Affinity calc Ki
Readings of pKi for the listed compounds
Note on pKi: it is the negative log10 of concentration, concentration in mol/L.

{"Compound": "CC(C)CCC(C)N1CCC2(CC1)C(=O)NN=C2c1ccccc1 (centres unmarked)", "pKi": 7.94}
{"Compound": "CCCC1CCC(N2CCC3(CC2)C(=O)NN=C3c2ccccc2)CC1 (centres unmarked)", "pKi": 7.53}
{"Compound": "O=C1NN=C(c2ccccc2)C12CCN(C1c3ccccc3CCc3ccccc31)CC2", "pKi": 6.55}
{"Compound": "O=C1NN=C(c2ccccc2)C12CCN(Cc1ccc3ccccc3c1)CC2", "pKi": 6.40}
{"Compound": "O=C1NN=C(c2ccccc2)C12CCN(Cc1ccc(-c3ccccc3)cc1)CC2", "pKi": 5.14}
{"Compound": "CC(C)C1CCC(N2CCC3(CC2)C(=O)NN=C3c2ccccc2)CC1 (centres unmarked)", "pKi": 8.82}
{"Compound": "O=C1NN=C(c2ccccc2)C12CCN(CCC(c1ccccc1)c1ccccc1)CC2", "pKi": 7.12}
{"Compound": "O=C1NN=C(c2ccccc2)C12CCN(Cc1ccccc1)CC2", "pKi": 6.53}
{"Compound": "O=C1NN=C(c2ccccc2)C12CCN(CCCC(c1ccc(F)cc1)c1ccc(F)cc1)CC2", "pKi": 5.59}
{"Compound": "O=C1NN=C(c2ccccc2)C12CCN(C1CCC3CCCCC3C1)CC2 (centres unmarked)", "pKi": 8.96}

Now for the compound whose pKi we want.
Value (pKi, human opioid receptor-like receptor (ORL-1) (Homo sapiens)) for record O=C1NN=C(c2ccccc2)C12CCN(Cc1ccc(OCc3ccccc3)cc1)CC2 = 6.86

---

Measured pKi, listed per entry.
Biological target: Mu opioid receptor (Homo sapiens, UniProt P35372)
Sequence (P35372 whole entry, species assumed): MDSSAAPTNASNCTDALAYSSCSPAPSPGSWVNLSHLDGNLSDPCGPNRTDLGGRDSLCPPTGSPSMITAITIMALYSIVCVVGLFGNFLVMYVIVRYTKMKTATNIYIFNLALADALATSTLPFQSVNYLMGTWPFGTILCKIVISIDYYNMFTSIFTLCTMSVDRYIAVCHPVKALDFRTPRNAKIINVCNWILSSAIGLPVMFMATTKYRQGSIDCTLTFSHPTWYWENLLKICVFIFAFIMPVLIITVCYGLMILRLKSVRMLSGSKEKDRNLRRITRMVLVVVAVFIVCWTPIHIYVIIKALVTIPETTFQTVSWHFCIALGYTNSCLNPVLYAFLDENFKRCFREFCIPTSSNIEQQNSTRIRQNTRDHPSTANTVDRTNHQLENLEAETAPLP
Experiment: Affinity at the μ receptor ([35S]GTPγS binding assay, membranes)
Conditions: read-out: Mu Receptor Affinity calc Ki
Protocol: Affinity at the μ receptor for compounds was obtained according to the following assay: Mu opioid receptor membrane solution was prepared by sequentially adding final concentrations of 0.075 μg/μl of the desired membrane protein, 10 μg/ml saponin, 3 μM GDP and 0.20 nM [^35S]GTPγS to binding buffer (100 mM NaCl, 10 mM MgCl2, 20 mM HEPES, pH 7.4) on ice. […] Fifty μl/well scintillation cocktail (MicroScint20, Packard) was added and plates were counted in a Packard Top-Count for 1 min/well. […]
Bear in mind: pKi is minus log10 of a mol/L concentration; give just that figure.

Example results:
{"Compound": "O=C1NNC(c2ccccc2)C12CCN(C1CCc3ccccc3C1)CC2 (stereo not shown)", "Measurement target": "Mu opioid receptor (Homo sapiens, UniProt P35372)", "pKi": 6.94}
{"Compound": "O=C1NNC(c2ccccc2)C12CCN(Cc1ccc3ccccc3c1)CC2 (stereo not shown)", "Measurement target": "Mu opioid receptor (Homo sapiens, UniProt P35372)", "pKi": 7.08}
{"Compound": "O=C1NNC(c2ccccc2)C12CCN(Cc1ccccc1)CC2 (stereo not shown)", "Measurement target": "Mu opioid receptor (Homo sapiens, UniProt P35372)", "pKi": 7.25}

For the next question, use this compound.
Record O=C1NNC(c2ccccc2)C12CCN(CC1CCCCCCC1)CC2 (stereo not shown) , field pKi: 6.72

These entries and their values trace back to patent US6635653B2.
